- Test system: MHC-I expression by COLO 205 cells
- assay_summary: cells
- Assay type: cell-based, human
- test_conditions: Homo sapiens, COLO 205, 48 h, MHC-I expression, COLO 205 cells, compounds at 35 μM, 48 hours, flow cytometry (W6/32); read-out: Induction Fold
Each record is given Y if its reported fold induction at 35 µM is strictly below 2. Records at or above 2 are given N.

molecule_smiles | assigned_category
N#CCCCCn1cc(C(=O)c2cccc3ccccc23)c2ccccc21 | N

## Input Does the reported fold induction at 35 µM of the following compound sit strictly below 2? O=C(c1ccc(I)cc1)c1cn(CCCCCF)c2ccccc12
## Output Y

###

- Tested on: MHC-I expression by COLO 205 cells
- assay_summary: cells
- Type: cell-based, human
- test_conditions: Homo sapiens, COLO 205, 48 h, MHC-I expression, COLO 205 cells, compounds at 35 μM, 48 hours, flow cytometry (W6/32); read-out: Induction Fold
# fold induction at 35 µM annotations
Respond numerically, and do not add a unit to the figure.

compound | fold induction at 35 µM
O=C(Nc1cccc2cccnc12)c1cn(CCCCCF)c2ccccc12 | 1.84
CCC(CC)n1cc(C(=O)c2ccc3ccccc3c2)c2ccccc21 | 1.87
CCCCCn1cc(C(=O)c2cccc3ccc(Cl)cc23)c2ccccc21 | 2.16
CCCCCn1cc(C(=O)NCc2ccccc2)c2ccccc21 | 2.48
CCN(CC)CCN1C(=O)CN=C(c2ccccc2F)c2cc(Cl)ccc21 | 1.63

## Input Please report the measured fold induction at 35 µM for O=C(c1cccc2ccccc12)c1cn(Cc2ccc(F)cc2)c2ccccc12
## Output 1.77

## Input Please report the measured fold induction at 35 µM for CCCCCCC(C)(C)c1ccc([C@@H]2C[C@@H](O)CC[C@H]2CCCO)c(O)c1 (relative stereo)
## Output 0.33

###

- Tested on: MHC-I expression on COLO 205 cells
- assay_summary: Phytocannabinoid MHC-I induction on COLO 205 cells, 0-100 μM, 48 hours
- test_conditions: MHC-I expression on COLO 205 cells, 0-100 μM, 48 hours, relative to control cells treated only with buffer
value_kind: Fold Induction (Fold)
Numbers only; they are read as Fold.

Check out these entries, answers already filled in.
molecule_smiles | value_units | Fold Induction
CCCCCc1cc(OC)c2c(c1)OC(C)(C)c1ccc(C)cc1-2 | Fold | 2.3
CCCCCc1cc(O)c2c(c1)OC(C)(C)[C@@H]1CC=C(C)C[C@@H]21 | Fold | 4.1

Now look at this entry.
## Input Please indicate recorded Fold Induction of CC(C)=CCC/C(C)=C/Cc1c(O)cc(C)c(C(=O)O)c1O measured with MHC-I expression on COLO 205 cells.
## Output 2.6

###

- System: MHC-I expression by COLO 205 cells
- assay_summary: cells
- Format: cell-based, human
- test_conditions: Homo sapiens, COLO 205, 48 h, MHC-I expression, COLO 205 cells, compounds at 35 μM, 48 hours, flow cytometry (W6/32); read-out: Induction Fold
# fold induction at 35 µM annotations
Respond numerically, and do not add a unit to the figure.

Check out these entries, answers already filled in.
compound | fold induction at 35 µM
O=C(Oc1ccc2ncccc2c1)c1cn(CC2CCCCC2)c2ccccc12 [Example 314] | 1.32
CCCCCn1cc(C(=O)c2cccc3cccc(Cl)c23)c2ccccc21 [Example 50] | 3

Now look at this entry.
## Input Please indicate recorded fold induction at 35 µM of O=C(c1cccc2ccccc12)c1cn(CCCC2CO2)c2ccccc12 (stereo not drawn) [Example 156] measured with MHC-I expression by COLO 205 cells.
## Output 2.07

Origin of values: patent US20210038559A1
